Target: Phosphatidylinositol 4,5-bisphosphate 3-kinase catalytic subunit alpha isoform (Homo sapiens)
Sequence (P42336 whole entry, canonical isoform): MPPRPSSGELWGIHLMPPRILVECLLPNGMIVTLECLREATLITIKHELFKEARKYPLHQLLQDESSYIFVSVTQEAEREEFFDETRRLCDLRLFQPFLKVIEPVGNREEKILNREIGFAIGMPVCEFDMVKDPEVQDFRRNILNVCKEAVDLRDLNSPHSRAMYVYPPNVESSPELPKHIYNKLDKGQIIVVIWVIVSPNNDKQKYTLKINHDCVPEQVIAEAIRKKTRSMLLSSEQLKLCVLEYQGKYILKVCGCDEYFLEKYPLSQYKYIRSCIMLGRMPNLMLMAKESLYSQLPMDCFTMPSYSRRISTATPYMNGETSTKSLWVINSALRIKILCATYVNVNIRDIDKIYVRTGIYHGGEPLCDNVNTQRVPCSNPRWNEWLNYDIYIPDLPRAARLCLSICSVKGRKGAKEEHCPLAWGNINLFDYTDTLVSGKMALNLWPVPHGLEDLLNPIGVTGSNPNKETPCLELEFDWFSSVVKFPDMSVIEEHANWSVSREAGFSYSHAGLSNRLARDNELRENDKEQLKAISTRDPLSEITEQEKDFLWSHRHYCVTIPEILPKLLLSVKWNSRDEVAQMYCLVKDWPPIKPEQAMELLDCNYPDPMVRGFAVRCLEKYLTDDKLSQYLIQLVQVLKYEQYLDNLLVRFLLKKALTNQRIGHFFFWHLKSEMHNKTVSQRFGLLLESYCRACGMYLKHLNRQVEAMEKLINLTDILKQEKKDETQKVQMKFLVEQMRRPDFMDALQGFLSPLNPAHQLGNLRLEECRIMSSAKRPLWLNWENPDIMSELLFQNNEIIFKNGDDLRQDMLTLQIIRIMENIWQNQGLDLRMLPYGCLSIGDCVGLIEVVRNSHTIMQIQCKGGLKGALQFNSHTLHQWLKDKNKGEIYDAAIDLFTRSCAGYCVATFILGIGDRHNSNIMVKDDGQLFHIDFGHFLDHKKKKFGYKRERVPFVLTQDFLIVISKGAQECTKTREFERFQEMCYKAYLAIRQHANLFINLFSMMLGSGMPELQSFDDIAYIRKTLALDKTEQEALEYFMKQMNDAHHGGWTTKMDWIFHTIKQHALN
measured-endpoint: IC50 (nM)
Numeric only. Scale: nM

[Q] Item Cc1nc(N)nc(-n2c(Nc3ccn(C(F)F)n3)nc3ccccc32)n1 has what recorded IC50?
[A] 10400

[Q] Follow-up item: Cc1nc(N)cc(-n2c(Nc3cccc(O)c3)nc3ccccc32)n1
[A] 42

====

Assay: Intrinsic clearance in human liver microsomes
Assay type: ADME, Microsome
measured-endpoint: microsomal CLint (µL/min/mg)
Answer in µL/min/mg, number only, no unit symbol.

[Q] Please give the measured microsomal CLint for this compound: Cc1nc(N)nc(-n2c(Nc3ccon3)nc3ccccc32)n1
[A] 39

Below: the item to evaluate.
[Q] Which microsomal CLint reading was recorded for the compound Cc1nc(N)nc(-n2c(Nc3ccn[nH]3)nc3ccccc32)n1 ?
[A] 79
